src = patent US20210380699A1

# Measurement Target: Human PD-L1 expressed on cells (human, UniProt Q9NZQ7 19-290)
# Sequence (Q9NZQ7 19-290 limits assumed): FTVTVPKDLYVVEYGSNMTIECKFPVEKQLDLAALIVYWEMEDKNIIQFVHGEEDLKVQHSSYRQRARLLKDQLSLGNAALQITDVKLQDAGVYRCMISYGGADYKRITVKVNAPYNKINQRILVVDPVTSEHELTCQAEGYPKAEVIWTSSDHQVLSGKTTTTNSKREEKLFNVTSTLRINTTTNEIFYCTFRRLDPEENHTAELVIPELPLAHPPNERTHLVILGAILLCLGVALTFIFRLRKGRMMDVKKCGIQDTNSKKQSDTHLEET
# Assay Info: cell-based or functional assay
Experimental Endpoint: EC50, ADCC reporter assay, n = 1 (nM)
Record the value in nM, omitting the unit from your answer.

Below are worked cases with known answers.
Binder	Experimental Endpoint	Output Unit	Assay Value
84G09 (human IgG1) (antibody, V domains shown, also called clone 84609; lead antibody) VH: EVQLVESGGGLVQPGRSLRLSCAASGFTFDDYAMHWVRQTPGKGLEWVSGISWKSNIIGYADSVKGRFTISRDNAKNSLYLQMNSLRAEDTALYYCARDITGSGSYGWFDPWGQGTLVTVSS VL: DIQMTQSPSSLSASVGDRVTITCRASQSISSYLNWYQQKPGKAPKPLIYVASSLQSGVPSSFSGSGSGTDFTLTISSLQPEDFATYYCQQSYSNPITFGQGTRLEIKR	EC50, ADCC reporter assay, n = 1	nM	0.0249
414B06 (antibody, V domains shown, also called 414606) VH: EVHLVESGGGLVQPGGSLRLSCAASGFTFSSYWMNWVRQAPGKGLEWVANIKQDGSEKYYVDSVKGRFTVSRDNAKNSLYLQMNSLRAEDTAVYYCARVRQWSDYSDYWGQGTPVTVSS VL: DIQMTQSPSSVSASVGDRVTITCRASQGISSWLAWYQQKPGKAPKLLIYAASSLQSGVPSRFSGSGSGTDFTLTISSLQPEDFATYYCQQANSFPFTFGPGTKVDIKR	EC50, ADCC reporter assay, n = 1	nM	0.0191
413G05 (antibody, human IgG1, kappa, V domains shown) VH: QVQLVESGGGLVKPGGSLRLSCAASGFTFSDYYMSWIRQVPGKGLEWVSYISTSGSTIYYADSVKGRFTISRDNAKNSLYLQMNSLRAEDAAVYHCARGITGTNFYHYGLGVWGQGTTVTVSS VL: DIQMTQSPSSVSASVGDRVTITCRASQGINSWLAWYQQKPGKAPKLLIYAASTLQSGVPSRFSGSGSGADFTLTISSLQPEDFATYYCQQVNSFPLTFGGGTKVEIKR	EC50, ADCC reporter assay, n = 1	nM	0.0219

Return reported EC50, ADCC reporter assay, n = 1; argument: 416E01 (human IgG1) (antibody, V domains shown) VH: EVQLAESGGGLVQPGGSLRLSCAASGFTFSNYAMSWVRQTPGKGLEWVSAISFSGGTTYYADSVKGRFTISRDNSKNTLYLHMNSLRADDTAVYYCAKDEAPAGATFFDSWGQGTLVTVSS VL: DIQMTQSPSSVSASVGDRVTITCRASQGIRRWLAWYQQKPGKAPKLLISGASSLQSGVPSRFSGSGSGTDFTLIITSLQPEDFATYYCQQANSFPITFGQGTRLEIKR 0.08
